Recorded inhibition at 1 µM for the following molecules
Target: UniProt:P0DTD1
Assay: biochemical
Conditions: 0.5 h, read-out: inhibition [%] SARS-CoV-2 PLpro
The response must be a number in % with no trailing unit.

Cc1ccc(Cl)cc1-n1[se]c2ccccc2c1=O | 62.6
COc1ccc(-n2[se]c3ccccc3c2=O)c(OC)c1 | 64.3
O=c1c2ccccc2[se]n1-c1ccc([N+](=O)[O-])cc1 | 56.2
O=c1c2ccccc2[se]n1-c1ccccc1Br | 59.2

// next entry
input: Given the molecule COc1cccc(-n2[se]c3ccccc3c2=O)c1 , write its reported inhibition at 1 µM.
output: 52.6

* * *

Catalogue of inhibition [%] SARS-CoV-2 PLpro values
Biological target: SARS-CoV-2 PL^pro (Severe acute respiratory syndrome coronavirus 2, UniProt P0DTD1)
Test: biochemical
Conditions: [E] = 100 nM, [I] = 1 µM, [S] = 10 µM
The reply should be a number in %, with the unit left off.

O=c1c2ccccc2[se]n1-c1ccccc1[N+](=O)[O-] [Compound 6] | 46.6
O=c1c2ccccc2[se]n1-c1cc(Cl)ccc1Cl [Compound 18] | 47.8

input: Return inhibition [%] SARS-CoV-2 PLpro for the following compound: O=C(Nc1ccc(C(F)(F)F)cc1)c1ccccc1[Se][Se]c1ccccc1C(=O)Nc1ccc(C(F)(F)F)cc1 [Compound 29]
output: 61.3

input: Supply measured inhibition [%] SARS-CoV-2 PLpro of O=C(Nc1cccc(F)c1)c1ccccc1[Se][Se]c1ccccc1C(=O)Nc1cccc(F)c1 [Compound 27] in your reply.
output: 90.1

input: Look up and state reported inhibition [%] SARS-CoV-2 PLpro for O=c1c2ccccc2[se]n1-c1ccc(Cl)cc1F [Compound 15]
output: 55.7

* * *

Each item that follows carries a reported melting point.

Below, each entry is followed by its recorded melting point result.
Cc1c(Cl)cccc1-n1[se]c2ccccc2c1=O [Compound 21] | 282 to 283 °C
O=c1c2ccccc2[se]n1-c1ncccc1O [Compound 7] | 228 to 229 °C (dec.)
O=c1c2ccccc2[se]n1-c1ccc(I)cc1 [Compound 11] | 203 to 204 °C

Could you now look at the following compound, please?
input: Using known records, supply melting point for COc1ccc(-n2[se]c3ccccc3c2=O)c(OC)c1 [Compound 16]
output: 238 to 240 °C

* * *

The reader will find IC50 measurements below, all made with UniProt:P0DTD1.
Quick reminder: number only, in nM, skip the unit.

Below: 3 compounds and their reported IC50.
Cc1cc(NC(=O)c2ccccc2[Se][Se]c2ccccc2C(=O)Nc2ccc(Cl)c(C)c2)ccc1Cl [Compound 33] | 1060
COc1ccc(NC(=O)c2ccccc2[Se][Se]c2ccccc2C(=O)Nc2ccc(OC)cc2OC)c(OC)c1 [Compound 31] | 910
O=C(Nc1ccccc1C(F)(F)F)c1ccccc1[Se][Se]c1ccccc1C(=O)Nc1ccccc1C(F)(F)F [Compound 26] | 1820

// next entry
input: Please look at O=C(Nc1ccc(Cl)cc1F)c1ccccc1[Se][Se]c1ccccc1C(=O)Nc1ccc(Cl)cc1F [Compound 30] and tell me its recorded IC50 on UniProt:P0DTD1.
output: 11500

* * *

Target: SARS-CoV-2 PL^pro (Severe acute respiratory syndrome coronavirus 2)
Experiment: biochemical
Details: [E] = 100 nM, [I] = 1 µM, [S] = 10 µM
readout_name: inhibition [%] SARS-CoV-2 PLpro (%)
Quick note: give the figure in %, leave out the unit.

Answered examples (5):
O=c1c2ccccc2[se]n1-c1ccccc1C(F)(F)F [Compound 5] | 44.4
CC(=O)c1ccc(-n2[se]c3ccccc3c2=O)cc1 [Compound 12] | 59.0
Cc1ccccc1-n1[se]c2ccccc2c1=O [Compound 4] | 55.8
COc1cccc(NC(=O)c2ccccc2[Se][Se]c2ccccc2C(=O)Nc2cccc(OC)c2)c1 [Compound 28] | 81.9
O=C(Nc1ccccc1F)c1ccccc1[Se][Se]c1ccccc1C(=O)Nc1ccccc1F [Compound 25] | 82.1

Now consider the entry below.
input: Provide measured inhibition [%] SARS-CoV-2 PLpro on SARS-CoV-2 PL^pro (Severe acute respiratory syndrome coronavirus 2) for COc1ccc(NC(=O)c2ccccc2[Se][Se]c2ccccc2C(=O)Nc2ccc(OC)cc2OC)c(OC)c1 [Compound 31] please.
output: 76.6

* * *

Assay: Cytotoxicity assay (XTT) in Vero E6 cells
Type: cell-based
Settings: African green monkey
readout_name: CC50 at 3 days

input: Give the value of CC50 at 3 days reported for the following: O=c1c2ccccc2[se]n1-c1ccccc1 [Ebselen, 2-phenylbenzisoselenazol-3(2H)-one, reference compound]
output: ~30 µM

* * *

Molecular target: SARS-CoV-2 nsp14 N7-MTase (Severe acute respiratory syndrome coronavirus 2, UniProt P0DTD1)
Test: Py-FLINT fluorescence assay of nsp14 N7-MTase
Type: biochemical
Conditions: four-parameter dose-response fit, variable Hill slope
Label rule, in plain words: SARS-CoV-2 nsp14 Hill coefficient p of 3 and up is yes, under 3 is no.

O=c1c2ccccc2[se]n1-c1ccccc1 [Ebselen, 2-phenylbenzisoselenazol-3(2H)-one, reference compound] | no
O=c1c2ccccc2[se]n1-c1cc(Cl)ccc1F [Compound 17] | no
O=c1c2ccccc2[se]n1-c1ccc([N+](=O)[O-])cc1 [Compound 10] | no
O=c1c2ccccc2[se]n1-c1ncccc1O [Compound 7] | yes
O=c1c2ccccc2[se]n1-c1ccccc1Br [Compound 3] | yes

Let us examine a further case.
input: Quick check, SARS-CoV-2 nsp14 Hill coefficient p >= 3? COc1ccc(-n2[se]c3ccccc3c2=O)c(OC)c1 [Compound 16]
output: no

* * *

Molecular target: SARS-CoV-2 M^pro (Severe acute respiratory syndrome coronavirus 2, UniProt P0DTD1)
Assay: biochemical
Settings: read-out: inhibition [%] SARS-CoV-2 Mpro, [I] = 100 nM
Recorded inhibition at 0.1 µM values for a group of compounds are listed next.
Please reply with the bare figure in % and do not write the unit itself.

O=c1c2ccccc2[se]n1-c1cc(Cl)ccc1F [Compound 17] | 82.3
O=C(Nc1ccc(Cl)cc1F)c1ccccc1[Se][Se]c1ccccc1C(=O)Nc1ccc(Cl)cc1F [Compound 30] | 27.4
Cc1ccc(Cl)cc1-n1[se]c2ccccc2c1=O [Compound 20] | 69
O=c1c2ccccc2[se]n1-c1ccccc1F [Compound 1] | 72.3

input: Give inhibition at 0.1 µM only, for CC(=O)c1ccc(-n2[se]c3ccccc3c2=O)cc1 [Compound 12] , using SARS-CoV-2 M^pro (Severe acute respiratory syndrome coronavirus 2, UniProt P0DTD1) data.
output: 55.1

input: Enter measured inhibition at 0.1 µM, system SARS-CoV-2 M^pro (Severe acute respiratory syndrome coronavirus 2, UniProt P0DTD1), for the compound shown: COc1ccc(-n2[se]c3ccccc3c2=O)c(OC)c1 [Compound 16]
output: 59

input: Report its inhibition at 0.1 µM with SARS-CoV-2 M^pro (Severe acute respiratory syndrome coronavirus 2, UniProt P0DTD1) as the test system: Cc1ccc(Cl)c(-n2[se]c3ccccc3c2=O)c1 [Compound 19]
output: 61.8

input: Write inhibition at 0.1 µM of O=c1c2ccccc2[se]n1-c1ccc(F)cc1F [Compound 14] ; system used: SARS-CoV-2 M^pro (Severe acute respiratory syndrome coronavirus 2, UniProt P0DTD1)
output: 64.8

input: Consider the compound O=C(Nc1c(F)cccc1Cl)c1ccccc1[Se][Se]c1ccccc1C(=O)Nc1c(F)cccc1Cl [Compound 34] tested on SARS-CoV-2 M^pro (Severe acute respiratory syndrome coronavirus 2, UniProt P0DTD1); state its inhibition at 0.1 µM.
output: 32

input: Recall the reported inhibition at 0.1 µM of O=c1c2ccccc2[se]n1-c1ccc(C(F)(F)F)cc1 [Compound 9] on SARS-CoV-2 M^pro (Severe acute respiratory syndrome coronavirus 2, UniProt P0DTD1) and write it down.
output: 71

* * *

Heads up, these molecules all have pIC50 values measured for SARS-CoV-2 nsp14 N7-MTase (Severe acute respiratory syndrome coronavirus 2).
pIC50 here: minus log base 10 of the concentration, concentration in moles per litre.

Here are 5 molecules together with their reported answers.
O=C(Nc1ccccc1F)c1ccccc1[Se][Se]c1ccccc1C(=O)Nc1ccccc1F [Compound 25] | 6.92
COc1cccc(NC(=O)c2ccccc2[Se][Se]c2ccccc2C(=O)Nc2cccc(OC)c2)c1 [Compound 28] | 6.24
O=C(Nc1cccc(F)c1)c1ccccc1[Se][Se]c1ccccc1C(=O)Nc1cccc(F)c1 [Compound 27] | 6.74
Cc1ccc(Cl)cc1NC(=O)c1ccccc1[Se][Se]c1ccccc1C(=O)Nc1cc(Cl)ccc1C [Compound 32] | 4.92
O=C(Nc1c(F)cccc1Cl)c1ccccc1[Se][Se]c1ccccc1C(=O)Nc1c(F)cccc1Cl [Compound 34] | 5.68

Turning now to a further record.
input: Find pIC50 for O=C(Nc1ccc(C(F)(F)F)cc1)c1ccccc1[Se][Se]c1ccccc1C(=O)Nc1ccc(C(F)(F)F)cc1 [Compound 29] on SARS-CoV-2 nsp14 N7-MTase (Severe acute respiratory syndrome coronavirus 2) and write it down.
output: 5.35

The measurements presented in this section are drawn from paper PMC10242237.
